Molecular target: Neurotensin receptor NTS1 (HT29 cells/membranes) (human), P30989
Sequence (P30989 whole entry): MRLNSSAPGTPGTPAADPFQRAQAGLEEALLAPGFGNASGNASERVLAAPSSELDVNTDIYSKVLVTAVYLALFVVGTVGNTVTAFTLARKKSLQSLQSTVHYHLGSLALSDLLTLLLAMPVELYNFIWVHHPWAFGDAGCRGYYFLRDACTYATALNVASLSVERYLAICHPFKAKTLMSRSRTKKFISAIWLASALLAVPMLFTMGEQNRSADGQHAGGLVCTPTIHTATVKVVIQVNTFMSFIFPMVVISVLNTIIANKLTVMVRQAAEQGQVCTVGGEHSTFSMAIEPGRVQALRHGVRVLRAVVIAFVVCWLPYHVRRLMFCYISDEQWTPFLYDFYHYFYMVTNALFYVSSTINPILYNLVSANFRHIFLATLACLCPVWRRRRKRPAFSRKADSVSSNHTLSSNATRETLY
Test: competition, HT29 cells
Conditions: modification not given
pIC50: −log10 of the molar value.
Classify as follows. Reported pIC50 greater than or equal to 8: Criterion met. Reported pIC50 below: Criterion not met.

Q. Identify whether the reported pIC50 of the following binder is 8 or greater: KPRRPYIL [NT-20.1]
A. Criterion met

Q. Check the entry KPRRPYIL [NT-20.2] : does pIC50 equal or exceed 8?
A. Criterion met

Q. Say whether KPRRPYIL [DTPA(In)-NT-20.2] shows pIC50 of 8 or more.
A. Criterion not met
